target: rat GPR14 (U-II receptor) (Rattus norvegicus, UniProt P49684); construct: expressed in transfected cells; assay: Rat UII Calcium Mobilization FLIPR Assay; type: cell-based; settings: average value for the compound tested; read-out: Rat UII FLIPR Average IC50
Sequence (P49684 whole entry): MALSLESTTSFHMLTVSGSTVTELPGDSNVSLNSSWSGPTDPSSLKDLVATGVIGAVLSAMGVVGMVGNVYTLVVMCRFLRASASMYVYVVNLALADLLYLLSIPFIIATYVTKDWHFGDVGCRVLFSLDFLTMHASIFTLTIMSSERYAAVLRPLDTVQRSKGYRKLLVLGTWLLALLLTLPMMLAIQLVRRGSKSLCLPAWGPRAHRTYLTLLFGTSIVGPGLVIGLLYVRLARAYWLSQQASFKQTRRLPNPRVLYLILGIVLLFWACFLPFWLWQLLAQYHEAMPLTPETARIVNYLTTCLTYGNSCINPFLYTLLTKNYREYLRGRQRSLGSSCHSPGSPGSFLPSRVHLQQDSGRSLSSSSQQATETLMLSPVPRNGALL
Experimental Endpoint: IC50 (nM)

• COc1ccc([C@@H](CCCNS(=O)(=O)c2cnn(C)c2C)N2C(=O)c3cccc(N4CCN([C@H](C)c5ccccc5)CC4)c3C2=O)cc1OC = 9.8
• COc1ccc(C(CCCNS(=O)(=O)CS(C)(=O)=O)N2C(=O)c3cccc(N4CCN([C@H](C)c5ccccc5)CC4)c3C2=O)cc1OC (stereo partly drawn) = 19
• COc1ccc([C@@H](CCCN(C)S(=O)(=O)O)N2C(=O)c3cccc(N4CCN([C@H](C)c5ccccc5)CC4)c3C2=O)cc1OC = 49
• COc1ccc(CN2C(=O)c3cccc(N4CCN(CC5CCCC5)CC4)c3C2=O)cc1OC = 1300
• COc1ccc(CN2C(=O)c3cccc(N4CCN(Cc5ccc(C)o5)CC4)c3C2=O)cc1OC = 850
• COc1ccc(CN2C(=O)c3cccc(N4CCN(CC(C)C)CC4)c3C2=O)cc1OC = 4700
• CCN1CCN(c2cccc3c2C(=O)N([C@H](CCCNC(=O)C2CCC2)c2ccc(OC)c(OC)c2)C3=O)CC1 = 120
• COc1ccc([C@@H](CCCNC(=O)CC(C)C)N2C(=O)c3cccc(N4CCN([C@H](C)c5ccccc5)CC4)c3C2=O)cc1OC = 12
• COC(=O)c1csc(S(=O)(=O)NCCCC(c2ccc(OC)c(OC)c2)N2C(=O)c3cccc(N4CCN([C@H](C)c5ccccc5)CC4)c3C2=O)c1OC (stereo partly drawn) = 320
• COc1ccc([C@@H](CCCNC(=O)c2cnoc2C)N2C(=O)c3cccc(N4CCN([C@H](C)c5ccccc5)CC4)c3C2=O)cc1OC = 11
• COc1ccc([C@@H](CCCNC(=O)[C@H]2CCCN2C(C)=O)N2C(=O)c3cccc(N4CCN([C@H](C)c5ccccc5)CC4)c3C2=O)cc1OC = 15
• CCN1CCN(c2cccc3c2C(=O)N([C@H](CCCNS(=O)(=O)c2c(C)nn(C)c2C)c2ccc(OC)c(OC)c2)C3=O)CC1 = 7.5
• COc1ccc([C@@H](CCCNS(=O)(=O)c2ccc(C)s2)N2C(=O)c3cccc(N4CCN([C@H](C)c5ccccc5)CC4)c3C2=O)cc1OC = 81
• CCn1cc(S(=O)(=O)NCCC[C@H](c2ccc(OC)c(OC)c2)N2C(=O)c3cccc(N4CCN([C@H](C)c5ccccc5)CC4)c3C2=O)cn1 = 19
• COc1ccc([C@@H](CCNS(=O)(=O)c2cn(C)c(C)n2)N2C(=O)c3cccc(N4CCN([C@H](C)c5ccccc5)CC4)c3C2=O)cc1OC = 22
• COc1ccc(C(CCCNS(=O)(=O)c2cn(C)cn2)N2C(=O)c3cccc(N4CCN([C@H](C)c5ccccc5)CC4)c3C2=O)cc1OC (stereo partly drawn) = 18
• CCN1CCN(c2cccc3c2C(=O)N([C@H](CCCNC(=O)OC(C)(C)C)c2ccc(OC)c(OC)c2)C3=O)CC1 = 82
• CCN1CCN(c2cccc3c2C(=O)N([C@H](CCCOS(=O)(=O)c2cccs2)c2ccc(OC)c(OC)c2)C3=O)CC1 = 320
• COc1ccc(C(CCCNS(=O)(=O)C=Cc2ccccc2)N2C(=O)c3cccc(N4CCN([C@H](C)c5ccccc5)CC4)c3C2=O)cc1OC (stereo partly drawn) = 150
• COc1ccc([C@@H](CCCNC(=O)c2nccn2C)N2C(=O)c3cccc(N4CCN([C@H](C)c5ccccc5)CC4)c3C2=O)cc1OC = 19
• COc1ccc([C@H](CCCNS(=O)(=O)c2cccs2)N2C(=O)c3cccc(N4CCN([C@H](C)c5ccccc5)CC4)c3C2=O)cc1OC = 69
• COc1ccc([C@@H](CCCNC(=O)C(C)C)N2C(=O)c3cccc(OC4CCN(C)C4)c3C2=O)cc1OC (stereo partly drawn) = 4000
• COc1ccc([C@@H](CCCNS(=O)(=O)c2cnoc2C)N2C(=O)c3cccc(N4CCN([C@H](C)c5ccccc5)CC4)c3C2=O)cc1OC = 20
• COc1ccc([C@@H](CCCNS(=O)(=O)c2cccs2)N2C(=O)c3cccc(N4CCN(C5CCC5)CC4)c3C2=O)cc1OC = 7
• COc1ccc(CN2C(=O)c3cccc(N4CCN(Cc5ccoc5)CC4)c3C2=O)cc1OC = 270
• COc1ccc([C@@H](CCCNS(=O)(=O)c2cc(C)sc2C)N2C(=O)c3cccc(N4CCN([C@H](C)c5ccccc5)CC4)c3C2=O)cc1OC = 120
